Target or system Melanocortin receptor 3 (Homo sapiens); metric pKi; compiled from varied reports.
pKi: −log10 of the molar value.
measuredParameter: pKi

C[C@H]1NC(=O)c2cc(N)ccc2SC[C@@H](C(N)=O)NC(=O)[C@H](Cc2c[nH]c3ccccc23)NC(=O)[C@H](CCCNC(=N)N)NC(=O)[C@@H](Cc2ccccc2)NC(=O)[C@H](Cc2c[nH]cn2)NC1=O: 7.01
CCN(CC)CC(c1ccccc1F)N1CCN(C(=O)[C@@H](Cc2ccc(Cl)cc2)NC(=O)CC2(C)NCc3ccccc32)CC1 (stereo not given in full): 4.80

A = O=C(NCCc1ccc(Cl)cc1Cl)c1ccc(NC(=NC2CCCCC2)N2CCNCC2)cc1
B = CC(N[C@H]1CCNC1)c1ccccc1N1CCN(C(=O)[C@@H](Cc2ccc(Cl)cc2)NC(=O)[C@H]2Cc3ccccc3CN2)CC1 (stereo not given in full)
A or B : whose pKi is greater? Lab note: record the label of whichever item you select.
A

====

Target or system Melanocortin receptor 3 (Homo sapiens); metric Ki; compiled from varied reports.
measuredParameter: Ki (nM)

CC(=O)N[C@@H](Cc1ccc(O)cc1)C(=O)N[C@@H](CCCN=C(N)N)C(=O)N[C@H]1CSSC[C@@H](C(=O)N[C@@H](CO)C(=O)N2CCC[C@H]2C(=O)N2CCC[C@H]2C(=O)N[C@@H](CCCCN)C(=O)N[C@@H](CC(=O)O)C(N)=O)NC(=O)[C@H](Cc2c[nH]c3ccccc23)NC(=O)[C@H](CCCN=C(N)N)NC(=O)[C@@H](Cc2ccccc2)NC(=O)[C@H](Cc2c[nH]cn2)NC(=O)[C@H](CCC(=O)O)NC1=O: 7.91

a = N=C(N)NCCC[C@H](NC(=O)[C@H](Cc1ccccc1)NC(=O)[C@H](Cc1c[nH]cn1)NC(=O)CO)C(=O)N[C@@H](Cc1c[nH]c2ccccc12)C(N)=O
b = CC(=O)N[C@@H](CCC(N)=O)C(=O)N[C@H](Cc1ccccc1)C(=O)N1C[C@H](OCc2ccc3ccccc3c2)C[C@@H]1CCCN=C(N)N
Select the item whose Ki value is smaller, choosing between a and b . Lab note: record the label of whichever item you select.
b

====

Target or system Melanocortin receptor 3 (Homo sapiens); metric Ki; compiled from varied reports.
measuredParameter: Ki (nM)

Answered cases to consult:
Cc1ccc(N2CCN(C(=O)[C@H]3CN(C4CCOCC4)C[C@@H]3c3ccc(Cl)cc3)CC2)c([C@@H](N)C(C)C)c1: 1400
CCN(CC)CC(c1ccccc1F)N1CCN(C(=O)[C@@H](Cc2ccc(Cl)cc2)NC(=O)c2cc3ccccc3cn2)CC1 (some centres undefined): 1400
N=C(N)NCCC[C@H](NC(=O)[C@H](Cc1ccccc1)NC(=O)[C@H](Cc1cnc[nH]1)NC(=O)CCCO)C(=O)N[C@@H](Cc1c[nH]c2ccccc12)C(N)=O: 440

a = O=C(NCCc1ccc(Cl)cc1Cl)c1ccc(N/C(=N\C2CCNC2)NC2CCCCC2)cc1 (centres undefined)
b = N=C(N)NCCC[C@H]1C[C@H](OCc2ccc3ccccc3c2)CN1C(=O)[C@@H](Cc1ccccc1)NC(=O)[C@@H]1Cc2ccccc2CN1
c = CC(=O)N[C@@H](Cc1cnc[nH]1)C(=O)N[C@H](Cc1ccccc1)C(=O)N1C[C@H](OCc2ccc3ccccc3c2)C[C@@H]1C(=O)NCCN=C(N)N
Number of compounds to sort: 3. Sort criterion: Ki, ascending. // ordering of labels required in reply
b, c, a

I = NC(N)=NCCC[C@H]1C[C@@H](OCc2ccc3ccccc3c2)CN1C(=O)[C@H](N)Cc1ccccc1
II = O=C(N[C@H](Cc1ccc(Cl)cc1)C(=O)N1CCN([C@H]2CCCC[C@@H]2n2cncn2)CC1)C1Cc2ccccc2CN1 (some centres undefined)
I or II : whose Ki is greater? Lab note: record the label of whichever item you select.
II
(II: 6500 nM, I: 1240 nM)
